Biological target: human JAK1 catalytic kinase (JH1) domain (Homo sapiens (Human), UniProt P23458)
Sequence (P23458 875-1153): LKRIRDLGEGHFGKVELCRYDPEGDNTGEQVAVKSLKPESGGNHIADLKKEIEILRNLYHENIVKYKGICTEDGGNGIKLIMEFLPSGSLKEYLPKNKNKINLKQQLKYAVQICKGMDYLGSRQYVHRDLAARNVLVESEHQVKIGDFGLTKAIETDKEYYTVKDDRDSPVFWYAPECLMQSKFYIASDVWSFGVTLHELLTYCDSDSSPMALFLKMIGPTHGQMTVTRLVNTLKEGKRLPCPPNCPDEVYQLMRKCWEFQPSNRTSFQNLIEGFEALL
Test: ADP-Glo Kinase Assay, recombinant JAK1 catalytic kinase (JH1) domain
Type: biochemical
Conditions: recombinant JH1 domain 4 nM, 35 μM ATP, JAK3-342 peptide, mean, read-out: JAK1 biochem IC50 (nM) Mean
Recorded Endpoint: IC50
Remember to put the unit after the number in your answer.

Use these answered entries as a reference point.
| Compound | IC50 |
| --- | --- |
| Cn1ncc(-c2cc3c(N4CC5CCC(C4)N5C(=O)C4(F)CC4)ccnc3[nH]2)c1F [Example 242] | 362 nM |
| CN(C)c1cc(-c2cc3c(N4CC5CCC(C4)N5C(=O)[C@@H]4C[C@H]4F)ccnn3c2)cnn1 [Example 138] | 57 nM |
| O=C([C@@H]1C[C@H]1F)N1C2CCC1CN(c1ccnn3cc(-c4ccc(C(F)F)nc4)cc13)C2 [Example 116] | 44 nM |
| O=C([C@H]1CC1(F)F)N1C2CCC1CN(c1ncnn3cc(-c4cnn(C(F)F)c4)cc13)C2 [Example 8] | 226 nM |
| O=C([C@H]1CC1(F)F)N1C2CCC1CN(c1ncnn3cc(-c4cnn(C(F)F)c4)cc13)C2 (single isomer, unassigned) [Example 77] | 1290 nM |

Summary line: Cn1cc(-c2nc3c(N4CC5CCC(C4)N5C(=O)[C@@H]4C[C@H]4F)ccnc3[nH]2)c(F)n1 [Example 216] , human JAK1 catalytic kinase (JH1) domain (Homo sapiens (Human), UniProt P23458), reported IC50 = 41 nM

The reported IC50 value, human JAK1 catalytic kinase (JH1) domain (Homo sapiens (Human), UniProt P23458), for Cn1cc(-c2cc3c(N4CC5CCC(C4)N5C(=O)[C@@H]4C[C@H]4F)ccnn3c2)cn1 [Example 159] reads 51 nM

Record Cn1cc(-c2cc3c(N4CC5CCC(C4)N5C(=O)[C@@H]4C[C@H]4C#N)ncnn3c2)cn1 (single isomer, unassigned) [Example 74] has human JAK1 catalytic kinase (JH1) domain (Homo sapiens (Human), UniProt P23458) IC50 equal to 1280 nM

Summary: O=C([C@@H]1C[C@H]1F)N1C2CCC1CN(c1ccnc3[nH]c(C4CCOC4)nc13)C2 (stereo partly shown) [Example 211] , human JAK1 catalytic kinase (JH1) domain (Homo sapiens (Human), UniProt P23458), IC50 = 5780 nM

Known value: human JAK1 catalytic kinase (JH1) domain (Homo sapiens (Human), UniProt P23458) IC50 of the compound COc1nccc(-c2cc3c(N4CC5CCC(C4)N5C(=O)[C@@H]4C[C@H]4F)ccnn3c2)c1F [Example 26] equals 292 nM

* * *

Target: human JAK2 catalytic kinase (JH1) domain (Homo sapiens (Human))
Assay: ADP-Glo Kinase Assay, recombinant JAK2 catalytic kinase (JH1) domain
Type: biochemical
Conditions: recombinant JH1 domain 0.2 nM, 15 μM ATP, JAK3-974 peptide, mean, read-out: JAK2 biochem IC50 (nM) Mean
Recorded Endpoint: IC50 (nM)
// note: answer is a bare numeric in nM

Entry under test: COc1cc(-c2cn3ncc(F)c(N4CC5CCC(C4)N5C(=O)[C@@H]4C[C@H]4F)c3n2)ccn1 (stereo in doubt) . Its IC50 was 270

* * *

Biological target: human JAK3 catalytic kinase (JH1) domain (Homo sapiens (Human), UniProt P52333)
Sequence (P52333 822-1111): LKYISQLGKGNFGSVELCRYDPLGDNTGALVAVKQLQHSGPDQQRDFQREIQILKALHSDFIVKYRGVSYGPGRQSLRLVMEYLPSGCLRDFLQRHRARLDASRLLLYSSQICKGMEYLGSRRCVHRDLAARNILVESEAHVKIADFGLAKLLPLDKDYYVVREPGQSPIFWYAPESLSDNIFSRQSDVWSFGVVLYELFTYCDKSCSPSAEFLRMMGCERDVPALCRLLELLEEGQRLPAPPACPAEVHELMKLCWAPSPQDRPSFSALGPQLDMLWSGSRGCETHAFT
Experiment: ADP-Glo Kinase Assay, recombinant JAK3 catalytic kinase (JH1) domain
Format: biochemical
Conditions: recombinant JH1 domain 0.3 nM, 4 μM ATP, JAK3-974 peptide, mean, read-out: JAK3 biochem IC50 (nM) Mean
Counter-ions that a name gives are not always drawn.
Recorded Endpoint: IC50 (nM)
Answer in nM, number only, no unit symbol.

| Compound | Measurement Target | Recorded Endpoint | Result Unit | Measured Result |
| --- | --- | --- | --- | --- |
| Cc1ccc(-c2nc3c(N4CC5CCC(C4)N5C(=O)[C@@H]4C[C@H]4F)ccnc3[nH]2)cn1 | human JAK3 catalytic kinase (JH1) domain (Homo sapiens (Human), UniProt P52333) | IC50 | nM | 246 |
| N#CC1(C(=O)N2C3CCC2CN(c2ncnn4cc(-c5cnn(C(F)F)c5)cc24)C3)CC1 [Example 30, trifluoroacetate] | human JAK3 catalytic kinase (JH1) domain (Homo sapiens (Human), UniProt P52333) | IC50 | nM | 820 |
| CC(C)C(=O)N1C2CCC1CN(c1ncnn3cc(-c4cnn(C)c4)cc13)C2 | human JAK3 catalytic kinase (JH1) domain (Homo sapiens (Human), UniProt P52333) | IC50 | nM | 10000 |

Switching to the query record.
Lab note: O=C([C@@H]1C[C@H]1F)N1C2CCC1CN(c1ncnn3cc(-c4ccnc(F)c4)cc13)C2 gave IC50 of 7250

* * *

Biological target: human JAK2 catalytic kinase (JH1) domain (Homo sapiens (Human), UniProt O60674)
Sequence (O60674 849-1124): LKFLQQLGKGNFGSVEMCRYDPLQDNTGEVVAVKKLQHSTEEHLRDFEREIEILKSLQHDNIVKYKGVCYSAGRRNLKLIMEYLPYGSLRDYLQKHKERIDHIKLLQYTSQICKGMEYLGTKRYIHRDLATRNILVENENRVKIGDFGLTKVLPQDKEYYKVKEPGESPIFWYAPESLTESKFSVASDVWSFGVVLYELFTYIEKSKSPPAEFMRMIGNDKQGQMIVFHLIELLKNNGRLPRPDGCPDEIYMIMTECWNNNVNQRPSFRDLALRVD
Test: ADP-Glo Kinase Assay, recombinant JAK2 catalytic kinase (JH1) domain
Type: biochemical
Conditions: recombinant JH1 domain 0.2 nM, 15 μM ATP, JAK3-974 peptide, mean, read-out: JAK2 biochem IC50 (nM) Mean
I'd appreciate it if you marked entries Met when IC50 is lower than 1000 nM and Not met when it is not.

Worked examples, 3 molecules total:
| Molecule | Group Label |
| --- | --- |
| N#C[C@@H]1C[C@H]1C(=O)N1C2CCC1CN(c1ncnn3cc(-c4cnn(C(F)F)c4)cc13)C2 (single isomer, unassigned) [Example 78] | Not met |
| CCn1ncc(-c2cc3c(N4CC5CCC(C4)N5C(=O)C4CC4)ncnn3c2)c1F [Example 161] | Not met |
| Cn1ncc(-c2cc3c(N4CC5CCC(C4)N5C(=O)[C@@H]4C[C@H]4F)ncnn3c2)c1F [Example 97] | Not met |

Strictly below 1000 nM in IC50? O=C([C@@H]1CC1(F)F)N1C2CCC1CN(c1ccnn3cc(-c4cnn(C(F)F)c4)cc13)C2 [Example 21] Met

hey, is IC50 for O=C([C@@H]1C[C@H]1CO)N1C2CCC1CN(c1ncnn3cc(-c4cnn(C(F)F)c4)cc13)C2 (single isomer, unassigned) [Example 40] lower than 1000 nM or not? Not met

# TODO verify IC50 < 1000 nM strictly for this molecule: COc1cc(-c2cc3c(N4CC5CCC(C4)N5C(=O)[C@@H]4C[C@H]4F)ncnn3c2)ccn1 [Example 89] Met

Check if IC50 falls below 1000 nM for O=C(C1CC1)N1C2CCC1CN(c1ncnn3cc(-c4ccccc4F)cc13)C2 [Example 182] . Not met

Bench note: check whether Cn1cc(-c2cc3c(N4CC5CCC(C4)N5C(=O)[C@@H]4C[C@H]4F)ncnn3c2)cn1 [Example 2] shows IC50 below 1000 nM Met

* * *

Listed molecules paired with reported IC50
Target: human JAK1 catalytic kinase (JH1) domain (Homo sapiens (Human))
Assay: ADP-Glo Kinase Assay, recombinant JAK1 catalytic kinase (JH1) domain
Type: biochemical
Conditions: recombinant JH1 domain 4 nM, 35 μM ATP, JAK3-342 peptide, mean, read-out: JAK1 biochem IC50 (nM) Mean
Write the figure, then the unit, nothing else.

Observe how each entry below is paired with its result.
| Molecule | Measurement Target | Recorded Endpoint | Measured Result |
| --- | --- | --- | --- |
| O=C([C@@H]1C[C@H]1F)N1C2CCC1CN(c1ncnc3[nH]c(-c4ccnnc4)cc13)C2 | human JAK1 catalytic kinase (JH1) domain (Homo sapiens (Human)) | IC50 | 388 nM |
| Cn1ncc(-c2cc3c(N4CC5CCC(C4)N5C(=O)[C@@H]4C[C@H]4F)ccnn3c2)c1F [Example 133] | human JAK1 catalytic kinase (JH1) domain (Homo sapiens (Human)) | IC50 | 124 nM |
| O=C(C1CC1)N1C2CCC1CN(c1ncnn3cc(-c4cnn(C5COC5)c4)cc13)C2 | human JAK1 catalytic kinase (JH1) domain (Homo sapiens (Human)) | IC50 | 3300 nM |
| O=C(C1C(F)(F)C12CC2)N1C2CCC1CN(c1ncnn3cc(-c4cnn(C(F)F)c4)cc13)C2 (stereo not drawn) | human JAK1 catalytic kinase (JH1) domain (Homo sapiens (Human)) | IC50 | 969 nM |

IC50 for Cn1cc(-c2cc3c(N4CC5CCC(C4)N5C(=O)[C@@H]4CC4(F)F)ccnn3c2)cn1 is 55 nM

Item: Cn1cc(-c2cc3c(N4CC5CCC(C4)N5C(=O)C(F)(F)F)ncnn3c2)cn1 | IC50: 1200 nM

The recorded IC50 for Cn1cc(-c2nc3c(N4CC5CCC(C4)N5C(=O)[C@@H]4C[C@H]4F)c(F)cnc3[nH]2)c(F)n1 is 37 nM

IC50 in this record for O=S(=O)(C1CC1)N1C2CCC1CN(c1ncnn3cc(-c4cnn(C(F)F)c4)cc13)C2 : 9740 nM

The reported value for CN(C)c1ccc(-c2cc3c(N4CC5CCC(C4)N5C(=O)[C@@H]4C[C@H]4F)ncnc3[nH]2)cn1 in terms of IC50 is 116 nM
